# System: homoserine transsuccinylase
# Experimental details: Homoserine transsuccinylase activity test (Lee et al.), 5,5'-dithiobis(2-nitrobenzoic acid), absorption at 412 nm, with and without SAM
# Type: biochemical, E. coli
# Run conditions: cell extract; 3 mM homoserine, 0.3 mM succinyl-CoA, 50 mM potassium phosphate buffer pH 7.5
# Experimental: In order to determine the sensitivity of the activity of the different homoserine transsuccinylases to SAM, it is possible, for example, to carry out an activity test as described in Lee L. W. et al., J. Biol. Chem. 241, 5479-5480 (1966). […] The absorption is determined photometrically at 412 nm. […] The influence of SAM on the activities of the different homoserine transsuccinylases was determined by quantifying the activity in the presence of different concentrations of SAM (Cl salt, Sigma). […]
The following molecules are shown together with reported Activity (U/mg) values.
A complete answer gives the number and then names the unit.

Examples with answers:
pSLmetA*A: MetA variant with Ala instead of Tyr at position 294 (protein, UniProt P07623 2-309, looked up, variant Y294A) Homoserine …: PIRVPDELPAVNFLREENVFVMTTSRASGQEIRPLKVLILNLMPKKIETENQFLRLLSNSPLQVDIQLLRIDSRESRNTPAEHLNNFYCNFEDIQDQNFDGLIVTGAPLGLVEFNDVAYWPQIKQVLEWSKDHVTSTLFVCWAVQAALNILYGIPKQTRTEKLSGVYEHHILHPHALLTRGFDDSFLAPHSRYADFPAALIRDYTDLEILAETEEGDAYLFASKDKRIAFVTGHPEYDAQTLAQEFFRDVEAGLDPDVPYNYFPHNDPQNTPRASWRSHGNLLFTNWLNYYVAQITPYDLRHMNPTLD | 0.26 U/mg
pSLmetA*K: MetA variant with Lys instead of Tyr at position 294 (protein, UniProt P07623 2-309, looked up, variant Y294K) Homoserine …: PIRVPDELPAVNFLREENVFVMTTSRASGQEIRPLKVLILNLMPKKIETENQFLRLLSNSPLQVDIQLLRIDSRESRNTPAEHLNNFYCNFEDIQDQNFDGLIVTGAPLGLVEFNDVAYWPQIKQVLEWSKDHVTSTLFVCWAVQAALNILYGIPKQTRTEKLSGVYEHHILHPHALLTRGFDDSFLAPHSRYADFPAALIRDYTDLEILAETEEGDAYLFASKDKRIAFVTGHPEYDAQTLAQEFFRDVEAGLDPDVPYNYFPHNDPQNTPRASWRSHGNLLFTNWLNYYVKQITPYDLRHMNPTLD | 0.14 U/mg
pSLmetA*Q: MetA variant with Gln instead of Tyr at position 294 (protein, UniProt P07623 2-309, looked up, variant Y294Q) Homoserine …: PIRVPDELPAVNFLREENVFVMTTSRASGQEIRPLKVLILNLMPKKIETENQFLRLLSNSPLQVDIQLLRIDSRESRNTPAEHLNNFYCNFEDIQDQNFDGLIVTGAPLGLVEFNDVAYWPQIKQVLEWSKDHVTSTLFVCWAVQAALNILYGIPKQTRTEKLSGVYEHHILHPHALLTRGFDDSFLAPHSRYADFPAALIRDYTDLEILAETEEGDAYLFASKDKRIAFVTGHPEYDAQTLAQEFFRDVEAGLDPDVPYNYFPHNDPQNTPRASWRSHGNLLFTNWLNYYVQQITPYDLRHMNPTLD | 0.21 U/mg

Attention now shifts to the item below.
Request: Which Activity (U/mg) is listed for pSLmetAA: MetA variant with Ala instead of Asp at position 101 (protein, UniProt P07623 2-309, looked up, variant D101A) Homoserine …: PIRVPDELPAVNFLREENVFVMTTSRASGQEIRPLKVLILNLMPKKIETENQFLRLLSNSPLQVDIQLLRIDSRESRNTPAEHLNNFYCNFEDIQDQNFAGLIVTGAPLGLVEFNDVAYWPQIKQVLEWSKDHVTSTLFVCWAVQAALNILYGIPKQTRTEKLSGVYEHHILHPHALLTRGFDDSFLAPHSRYADFPAALIRDYTDLEILAETEEGDAYLFASKDKRIAFVTGHPEYDAQTLAQEFFRDVEAGLDPDVPYNYFPHNDPQNTPRASWRSHGNLLFTNWLNYYVYQITPYDLRHMNPTLD ?
Result: 0.20 U/mg
